- system-name: TYK2-JH2 domain (Homo sapiens)
- Construct: IC50 on JH2 domain activity (nM)
- Sequence (P29597 589-875 limits assumed): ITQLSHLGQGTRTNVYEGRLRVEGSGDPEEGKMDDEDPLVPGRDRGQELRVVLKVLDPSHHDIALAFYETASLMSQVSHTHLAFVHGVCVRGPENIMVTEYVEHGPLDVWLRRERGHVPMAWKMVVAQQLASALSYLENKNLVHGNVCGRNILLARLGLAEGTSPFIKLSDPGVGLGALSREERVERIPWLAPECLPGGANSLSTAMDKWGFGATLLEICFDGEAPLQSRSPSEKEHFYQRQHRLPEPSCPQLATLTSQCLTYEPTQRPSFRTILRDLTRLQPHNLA
- test-details: Binding activity test for JH2 domain of TYK2 (Tb-antibody/tracer FRET)
- test-context: ratio JAK1-JH2 IC50 / TYK2-JH2 IC50
Decision: JAK1/TYK2 selectivity >= 40 yields label 1, all other cases yield label 0.

See these solved cases before continuing.
[
  {
    "compound": "[2H]C([2H])([2H])NC(=O)c1cnc(NC(=O)C2CC2)cc1Nc1ccn2ncc(CO)c2c1OC",
    "system-name": "TYK2-JH2 domain (Homo sapiens)",
    "assigned-category": "label 0"
  },
  {
    "compound": "[2H]C([2H])([2H])NC(=O)c1cnc(Nc2ccc(F)cn2)cc1Nc1ncc2cnn(CC)c2c1OC",
    "system-name": "TYK2-JH2 domain (Homo sapiens)",
    "assigned-category": "label 1"
  },
  {
    "compound": "[2H]C([2H])([2H])NC(=O)c1cnc(Nc2ccn(C)n2)cc1Nc1ncc2cnn(CC)c2c1OC",
    "system-name": "TYK2-JH2 domain (Homo sapiens)",
    "assigned-category": "label 1"
  },
  {
    "compound": "[2H]C([2H])([2H])NC(=O)c1cnc(NC(=O)C2CC2)cc1Nc1ccn2ncc(Cl)c2c1OC",
    "system-name": "TYK2-JH2 domain (Homo sapiens)",
    "assigned-category": "label 0"
  }
]

// inclusive: JAK1/TYK2 selectivity at least 40? input: `[2H]C([2H])([2H])NC(=O)c1cnc(NC(=O)C2CC2)cc1Nc1ccn2ncc(CC(N)=O)c2c1OC` label 0

// inclusive: JAK1/TYK2 selectivity at least 40? input: [2H]C([2H])([2H])NC(=O)c1cnc(NC(=O)C2CC(C)C2)cc1Nc1ccc2cnn(CC)c2c1OC (stereo not shown) label 1

====

- test-details: Microsomal metabolic stability assay
- Format: in vitro ADME
- test-context: pH 7.4; rat liver microsomes, 0.5 mg/mL protein, 1 μM compound; read-out: Rat LM T½
metric: log10 of half-life at 1 μM (log10 of the value in min)
Recall that a logarithmic scale is used here: each number is log10 of half-life at 1 μM in min.

// worked examples, log10 of half-life at 1 μM included
[
  {
    "molecule": "CNC(=O)c1cnc(NC(=O)C2CC2)cc1Nc1nn(C)c2ccn(CC(F)(F)F)c(=O)c12 [Example 52]",
    "log10 of half-life at 1 μM": 1.65
  },
  {
    "molecule": "[2H]C([2H])([2H])NC(=O)c1cnc(NC(=O)C2CC2)cc1Nc1ccc2cnn(CC(F)(F)F)c2c1OC [Example 129]",
    "log10 of half-life at 1 μM": 1.20
  },
  {
    "molecule": "[2H]C([2H])([2H])NC(=O)c1nnc2cc1Nc1cc(cc(-c3ncn(C)n3)c1OC)COCc1cccc(n1)N2 [Example 68]",
    "log10 of half-life at 1 μM": 1.47
  },
  {
    "molecule": "[2H]C([2H])([2H])NC(=O)c1cnc(NC(=O)C2CC2)cc1Nc1cn(C)c2ccn(C(C)C(F)(F)F)c(=O)c12 (centres unmarked) [Example 190]",
    "log10 of half-life at 1 μM": 1.48
  },
  {
    "molecule": "[2H]C([2H])([2H])NC(=O)c1cnc(Nc2cccc(C#N)n2)nc1Nc1cccc(-c2ncn(C)n2)c1OC [Example 21]",
    "log10 of half-life at 1 μM": 2.27
  }
]

Fill in: log10 of half-life at 1 μM of CNC(=O)c1cnc(Nc2ccc(F)cn2)cc1Nc1cn(C)c2ccn(C)c(=O)c12 [Example 11] is ___ 1.66

Fill in: log10 of half-life at 1 μM of [2H]C([2H])([2H])NC(=O)c1cnc(Nc2ccc(F)cc2)nc1Nc1cccc(-c2ncn(C)n2)c1OC [Example 20] is ___ 1.88

Fill in: log10 of half-life at 1 μM of [2H]C([2H])([2H])NC(=O)c1cnc(NC(=O)C2CC2)cc1Nc1csc2c(Cl)cn(C)c(=O)c12 [Example 172] is ___ 1.32

Fill in: log10 of half-life at 1 μM of [2H]C([2H])([2H])NC(=O)c1cnc(NC(=O)C2CC2)cc1Nc1ccc2cnn(CC(F)F)c2c1OC [Example 131] is ___ 1.11

Fill in: log10 of half-life at 1 μM of [2H]C([2H])([2H])NC(=O)c1nnc2cc1Nc1cc(cc(-n3cnc(C)n3)c1OC)COCc1nc(ccc1F)N2 [Example 75] is ___ 1.79

Fill in: log10 of half-life at 1 μM of [2H]C([2H])([2H])NC(=O)c1cnc(Nc2cccc(F)n2)cc1Nc1cn(C)c2c(Cl)cn(CC)c(=O)c12 [Example 161] is ___ 1.34

Fill in: log10 of half-life at 1 μM of CNC(=O)c1cnc2nc1Nc1cc(cc(-c3ncn(C)n3)c1OC)COCc1cccc(c1)N2 [Example 33] is ___ 2.20

Fill in: log10 of half-life at 1 μM of [2H]C([2H])([2H])NC(=O)c1cnc(Nc2ccn(C)n2)cc1Nc1ccc2cnn(C([2H])([2H])[2H])c2c1OC [Example 154] is ___ 1.55

====

- system-name: Ba/F3-FL-TYK2-P760L cells (Homo sapiens, UniProt P29597, P760L, cells depend on it)
- Construct: BaF3-FL-T2P760L (nM)
- Sequence (P29597 whole entry P760L): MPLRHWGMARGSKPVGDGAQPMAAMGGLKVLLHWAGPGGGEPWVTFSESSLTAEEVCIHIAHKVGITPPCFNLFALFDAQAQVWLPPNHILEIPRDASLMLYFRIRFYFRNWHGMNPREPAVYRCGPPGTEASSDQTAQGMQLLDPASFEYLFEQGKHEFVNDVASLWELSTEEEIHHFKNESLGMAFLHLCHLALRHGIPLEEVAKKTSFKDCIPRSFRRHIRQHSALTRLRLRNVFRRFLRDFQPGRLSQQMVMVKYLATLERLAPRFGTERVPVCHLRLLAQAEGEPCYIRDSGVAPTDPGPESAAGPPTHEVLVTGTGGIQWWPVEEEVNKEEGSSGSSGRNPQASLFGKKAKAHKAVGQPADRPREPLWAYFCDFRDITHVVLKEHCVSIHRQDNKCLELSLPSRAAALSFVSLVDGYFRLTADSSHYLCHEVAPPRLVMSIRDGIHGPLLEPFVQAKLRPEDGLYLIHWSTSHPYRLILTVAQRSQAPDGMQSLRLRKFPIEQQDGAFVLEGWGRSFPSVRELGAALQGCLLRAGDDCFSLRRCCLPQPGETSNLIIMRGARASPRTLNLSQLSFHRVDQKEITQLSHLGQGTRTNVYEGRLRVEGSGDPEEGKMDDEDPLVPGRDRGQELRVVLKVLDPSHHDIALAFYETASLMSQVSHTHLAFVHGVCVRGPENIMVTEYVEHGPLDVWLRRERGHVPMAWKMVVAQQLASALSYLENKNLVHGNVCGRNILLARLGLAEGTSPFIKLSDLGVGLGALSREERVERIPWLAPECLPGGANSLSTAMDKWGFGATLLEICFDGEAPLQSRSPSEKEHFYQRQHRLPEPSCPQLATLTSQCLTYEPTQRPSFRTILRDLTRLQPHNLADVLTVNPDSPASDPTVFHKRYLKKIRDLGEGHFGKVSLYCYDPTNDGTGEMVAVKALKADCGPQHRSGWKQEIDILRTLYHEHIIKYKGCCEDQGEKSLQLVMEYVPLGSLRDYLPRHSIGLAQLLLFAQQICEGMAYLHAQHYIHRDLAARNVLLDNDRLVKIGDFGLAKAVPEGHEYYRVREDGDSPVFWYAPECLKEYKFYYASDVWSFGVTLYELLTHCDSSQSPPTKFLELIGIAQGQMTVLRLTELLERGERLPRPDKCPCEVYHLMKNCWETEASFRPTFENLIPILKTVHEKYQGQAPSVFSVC
- test-details: Anti-proliferative assay, Ba/F3-FL-TYK2-P760L cells (Cell-Titer Glo)
- Assay type: cell-based
- test-context: 72 h, read-out: BaF3-FL-T2P760L IC50
metric: GI50 (µM)
Respond numerically; units are µM and should not be typed.

[
  {
    "molecule": "[2H]C([2H])([2H])NC(=O)c1nnc(NC(=O)C2CC2)cc1Nc1cn(C)c2ccn(C)c(=O)c12",
    "reported": 0.214
  },
  {
    "molecule": "[2H]C([2H])([2H])NC(=O)c1cnc(NC(=O)C2CC2)nc1Nc1ccc2cnn(CC)c2c1OC",
    "reported": 0.128
  },
  {
    "molecule": "[2H]C([2H])([2H])NC(=O)c1cnc(NC(=O)C2CC2)cc1Nc1nn(C)c2ccn(CC3CC3(F)F)c(=O)c12 (stereo not shown)",
    "reported": 2.1
  },
  {
    "molecule": "[2H]C([2H])([2H])NC(=O)c1nnc2cc1Nc1cc(cc(-c3ncn(C)n3)c1OC)CNCc1nc(ccc1F)N2",
    "reported": 0.584
  },
  {
    "molecule": "[2H]C([2H])([2H])NC(=O)c1cnc(NC(=O)C2CC2)cc1Nc1ncc2cnn(CC(F)(F)F)c2c1OC",
    "reported": 0.0762
  }
]

What reported GI50 corresponds to `CCN1C(=O)C(F)(F)c2ccc(Nc3cc(NC(=O)C4CC4)ncc3C(=O)NC)c(OC)c21` on Ba/F3-FL-TYK2-P760L cells (Homo sapiens, UniProt P29597, P760L, cells depend on it)? 0.327

What reported GI50 corresponds to `[2H]C([2H])([2H])NC(=O)c1cnc(NC(=O)C2CC2)cc1Nc1csc2c(Cl)cn(C(C)C)c(=O)c12` on Ba/F3-FL-TYK2-P760L cells (Homo sapiens, UniProt P29597, P760L, cells depend on it)? 0.124

====

Recorded half-life at 1 μM, one value per entry.
- test-details: Microsomal metabolic stability assay
- Assay type: in vitro ADME
- test-context: pH 7.4; dog liver microsomes, 0.5 mg/mL protein, 1 μM compound; read-out: Dog LM T½
Respond numerically; units are h and should not be typed.

[
  {
    "molecule": "[2H]C([2H])([2H])NC(=O)c1cnc(NC(=O)C2CC2)cc1Nc1cn(C)c2ccn(C(C)C(F)(F)F)c(=O)c12 (centres unmarked)",
    "half-life at 1 μM / h": 1.57
  },
  {
    "molecule": "[2H]C([2H])([2H])NC(=O)c1cnc(NC(=O)C2CC2)cc1Nc1ccc2cnn(CC)c2c1OC",
    "half-life at 1 μM / h": 0.346
  },
  {
    "molecule": "[2H]C([2H])([2H])NC(=O)c1cnc(Nc2cccc(C#N)c2)nc1Nc1cccc(-c2ncn(C)n2)c1OC",
    "half-life at 1 μM / h": 0.812
  },
  {
    "molecule": "[2H]C([2H])([2H])NC(=O)c1cnc2cc1Nc1cc(cc(-c3ncn(C)n3)c1OC)COCc1cc(C(F)(F)F)cc(n1)N2",
    "half-life at 1 μM / h": 12
  },
  {
    "molecule": "[2H]C([2H])([2H])NC(=O)c1cnc(Nc2ccn(C)n2)cc1Nc1cc(F)c2cnn(CC)c2c1OC",
    "half-life at 1 μM / h": 0.494
  }
]

Fill in: half-life at 1 μM of `[2H]C([2H])([2H])NC(=O)c1cnc(Nc2cc(F)c(F)cn2)cc1Nc1cn(C)c2c(F)cn(C)c(=O)c12` is ___ 1.16

Fill in: half-life at 1 μM of `[2H]C([2H])([2H])NC(=O)c1cnc(Nc2ccc(F)cn2)cc1Nc1cn(C)c2ccn(CC)c(=O)c12` is ___ 1.74

Fill in: half-life at 1 μM of `[2H]C([2H])([2H])NC(=O)c1cnc2cc1Nc1cc(cc(-c3ncn(C)n3)c1OC)COCc1nc(ccc1C)N2` is ___ 0.759

Fill in: half-life at 1 μM of `[2H]C([2H])([2H])NC(=O)c1cnc(Nc2ccn(C)n2)cc1Nc1ccc2cnn(C([2H])([2H])[2H])c2c1OC` is ___ 1.38
